The measured values listed here are drawn from the supplement of paper PMC6555819.

Recorded PBM binding z-score values for a group of sequences are listed next.
tested on: PPARa:RXRa (NR concentration 270 nM, RXRa partner concentration 90 nM); test: PBM binding z-score (relative to random genomic background probes); higher = stronger binding; sequences stand for … in GC…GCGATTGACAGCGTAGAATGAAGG
// no unit string in output, number only

Known results for sequences:
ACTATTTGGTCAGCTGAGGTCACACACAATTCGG :: 3.9
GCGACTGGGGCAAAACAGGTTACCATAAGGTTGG :: 1.12
GCTTTTAGATCAAGGTTAAGAAAGACTAAGCTAA :: 1.49

Field: PBM binding z-score (PPARa:RXRa (NR concentration 270 nM, RXRa partner concentration 90 nM)). Entry: "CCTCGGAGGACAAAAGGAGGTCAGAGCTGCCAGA"
2.71

---

tested on: PXR homodimer (NR concentration 270 nM); experiment: PBM binding z-score (relative to random genomic background probes); higher = stronger binding; sequences stand for … in GC…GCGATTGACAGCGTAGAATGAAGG
Categories are assigned from the measured PBM binding z-score using these intervals: small value = under -0.2, mid value = from -0.2 up to 0.1, large value = 0.1 and over

Worked set:
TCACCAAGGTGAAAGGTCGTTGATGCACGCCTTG :: mid value
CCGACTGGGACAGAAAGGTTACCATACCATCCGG :: mid value
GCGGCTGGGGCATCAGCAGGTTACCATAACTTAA :: small value
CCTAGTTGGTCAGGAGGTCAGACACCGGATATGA :: large value

// bin(item) where item = "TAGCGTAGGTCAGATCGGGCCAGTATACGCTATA"
small value

// bin(item) where item = "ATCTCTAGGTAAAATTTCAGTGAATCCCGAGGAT"
mid value

// bin(item) where item = "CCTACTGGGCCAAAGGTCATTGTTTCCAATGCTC"
large value

// bin(item) where item = "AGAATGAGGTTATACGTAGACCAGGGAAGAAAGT"
large value

// bin(item) where item = "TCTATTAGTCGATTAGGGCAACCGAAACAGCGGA"
mid value

// bin(item) where item = "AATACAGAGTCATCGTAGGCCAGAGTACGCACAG"
small value

// bin(item) where item = "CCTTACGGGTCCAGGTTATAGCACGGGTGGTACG"
mid value

---

tested on: RARg homodimer (NR concentration 270 nM); test: PBM binding z-score (relative to random genomic background probes); higher = stronger binding; sequences stand for … in GC…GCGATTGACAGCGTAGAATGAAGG
Where PBM binding z-score equals or exceeds 3, the correct label is y; where it does not, the label is n.

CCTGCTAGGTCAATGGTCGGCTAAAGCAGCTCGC :: y
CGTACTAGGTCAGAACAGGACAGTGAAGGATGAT :: y
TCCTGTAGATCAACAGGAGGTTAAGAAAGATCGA :: n
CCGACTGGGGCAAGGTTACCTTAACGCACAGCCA :: n

Dear colleague, could you confirm whether "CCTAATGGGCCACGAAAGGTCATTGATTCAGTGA" has PBM binding z-score at or above 3?
y

Dear colleague, could you confirm whether "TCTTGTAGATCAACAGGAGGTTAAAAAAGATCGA" has PBM binding z-score at or above 3?
n

Dear colleague, could you confirm whether "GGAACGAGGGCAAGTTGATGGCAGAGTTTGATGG" has PBM binding z-score at or above 3?
n

Dear colleague, could you confirm whether "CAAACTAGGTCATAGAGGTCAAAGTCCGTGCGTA" has PBM binding z-score at or above 3?
y

Dear colleague, could you confirm whether "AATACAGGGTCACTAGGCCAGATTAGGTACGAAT" has PBM binding z-score at or above 3?
y

Dear colleague, could you confirm whether "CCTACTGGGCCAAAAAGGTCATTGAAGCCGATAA" has PBM binding z-score at or above 3?
y

Dear colleague, could you confirm whether "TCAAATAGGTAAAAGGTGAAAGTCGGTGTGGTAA" has PBM binding z-score at or above 3?
n

Dear colleague, could you confirm whether "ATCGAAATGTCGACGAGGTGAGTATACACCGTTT" has PBM binding z-score at or above 3?
n
